Where do these numbers come from? They come from paper PMC8316236.

# TARGET_SYSTEM: P-glycoprotein (P-gp, ABCB1) (Homo sapiens, UniProt P08183)
# Construct: inside-out membrane vesicles prepared from HEK293 cells overexpressing human P-gp
# Sequence (P08183 whole entry): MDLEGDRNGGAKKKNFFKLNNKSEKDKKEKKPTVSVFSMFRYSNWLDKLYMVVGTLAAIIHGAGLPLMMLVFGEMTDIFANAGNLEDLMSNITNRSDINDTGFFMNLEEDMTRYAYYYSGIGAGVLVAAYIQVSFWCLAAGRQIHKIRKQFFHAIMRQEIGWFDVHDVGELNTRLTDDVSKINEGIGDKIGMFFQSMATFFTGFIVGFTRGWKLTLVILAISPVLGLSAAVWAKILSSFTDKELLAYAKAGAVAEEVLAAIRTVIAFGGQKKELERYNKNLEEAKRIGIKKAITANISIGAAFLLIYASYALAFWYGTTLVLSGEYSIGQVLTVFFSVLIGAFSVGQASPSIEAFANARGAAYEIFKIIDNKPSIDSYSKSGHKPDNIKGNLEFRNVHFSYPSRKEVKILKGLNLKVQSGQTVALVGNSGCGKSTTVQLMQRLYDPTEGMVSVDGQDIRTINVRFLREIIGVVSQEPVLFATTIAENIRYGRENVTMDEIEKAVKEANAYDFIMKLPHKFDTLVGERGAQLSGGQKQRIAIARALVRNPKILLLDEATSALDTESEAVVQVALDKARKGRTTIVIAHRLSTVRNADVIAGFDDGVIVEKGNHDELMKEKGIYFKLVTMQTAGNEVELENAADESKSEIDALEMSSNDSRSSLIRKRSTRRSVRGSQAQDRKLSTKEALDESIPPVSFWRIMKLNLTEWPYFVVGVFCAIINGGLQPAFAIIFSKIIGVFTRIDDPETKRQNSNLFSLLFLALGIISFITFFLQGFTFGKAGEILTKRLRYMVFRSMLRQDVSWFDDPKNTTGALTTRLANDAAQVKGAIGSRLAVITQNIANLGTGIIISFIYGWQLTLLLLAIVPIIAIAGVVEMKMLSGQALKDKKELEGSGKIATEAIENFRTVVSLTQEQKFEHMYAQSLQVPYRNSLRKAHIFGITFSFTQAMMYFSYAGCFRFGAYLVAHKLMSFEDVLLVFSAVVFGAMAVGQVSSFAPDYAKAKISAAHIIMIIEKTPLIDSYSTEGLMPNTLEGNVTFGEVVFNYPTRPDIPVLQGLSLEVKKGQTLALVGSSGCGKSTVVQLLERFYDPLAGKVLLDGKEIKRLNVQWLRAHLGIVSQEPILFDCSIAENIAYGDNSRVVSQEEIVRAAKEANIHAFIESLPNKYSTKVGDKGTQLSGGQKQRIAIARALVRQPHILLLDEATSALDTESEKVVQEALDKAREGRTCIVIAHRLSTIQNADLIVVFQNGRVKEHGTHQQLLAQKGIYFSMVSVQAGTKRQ
# METHOD_NOTES: inside-out vesicular transport inhibition assay with tritiated probe substrate; also Caco-2 bidirectional transport ([…])
# Type: biochemical
PARAMETER_MEASURED: pIC50
The quantity pIC50 is defined as the negative base-10 logarithm of the molar concentration.

input: For P-glycoprotein (P-gp, ABCB1) (Homo sapiens, UniProt P08183), provide pIC50 of CC#CC(=O)N1CCC[C@H]1c1nc(-c2ccc(C(=O)Nc3ccccn3)cc2)c2c(N)nccn12 please.
output: 4.24
